In this section, each of the molecules is paired with its reported pIC50.
Target: cGAS (Homo sapiens, UniProt Q8N884)
Sequence (Q8N884 whole entry): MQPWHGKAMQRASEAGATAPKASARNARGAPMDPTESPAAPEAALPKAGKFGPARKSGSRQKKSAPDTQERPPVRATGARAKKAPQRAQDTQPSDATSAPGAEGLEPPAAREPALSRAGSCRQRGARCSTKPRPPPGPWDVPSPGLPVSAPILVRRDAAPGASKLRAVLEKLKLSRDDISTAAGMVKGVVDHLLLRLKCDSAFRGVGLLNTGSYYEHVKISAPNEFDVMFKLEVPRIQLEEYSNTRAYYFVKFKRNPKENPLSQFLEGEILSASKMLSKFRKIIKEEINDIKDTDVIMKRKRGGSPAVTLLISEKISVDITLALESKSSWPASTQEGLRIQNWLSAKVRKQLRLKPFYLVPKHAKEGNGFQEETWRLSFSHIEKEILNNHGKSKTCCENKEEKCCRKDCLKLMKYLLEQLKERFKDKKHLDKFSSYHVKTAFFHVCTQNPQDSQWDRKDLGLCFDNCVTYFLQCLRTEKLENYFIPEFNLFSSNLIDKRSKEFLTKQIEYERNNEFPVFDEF
Assay: In vitro inhibition assay of cGAS activity (cGAMP production, RapidFire mass spectrometry)
Assay type: biochemical
Design: Insert cDNA encoding full-length of human cGAS; His6; made in house; host or cells: E. coli BL21(DE3)
Settings: 10 nM recombinant human cGAS, 60 nM 75-bp dsDNA, 50 μM ATP, 50 μM GTP, 3 hrs
Please treat pIC50 as minus the base-10 logarithm of the molar concentration.

>  <molecule>
O=C1Cc2c([nH]c3c(Cl)c(Cl)cc(OCCCO)c23)CCN1 [Example 23]

>  <result_value>
6.93

$$$$
>  <molecule>
COCCNc1cc(Cl)c(Cl)c2[nH]c3c(c12)[C@@H](C)C(=O)NCC3 (single isomer, unassigned) [Example 47]

>  <result_value>
7.70

$$$$
>  <molecule>
CC1C(=O)NCCc2[nH]c3c(Cl)c(Cl)cc(NCc4cocn4)c3c21 (stereo in doubt) [Example 59]

>  <result_value>
5.70

$$$$
>  <molecule>
C[C@@H]1C(=O)NCCc2c1c1c(NC(=O)CO)cc(Cl)c(Cl)c1n2C (single isomer, unassigned) [Example 93]

>  <result_value>
5.56

$$$$
>  <molecule>
CC1C(=O)NCCc2[nH]c3c(Cl)c(Cl)cc(NC4CCOC4)c3c21 (stereo in doubt) [Example 66]

>  <result_value>
7.43

$$$$
>  <molecule>
C[C@@H]1CNC(=O)[C@@H](C)c2c1[nH]c1c(Cl)c(Cl)cc(CC#N)c21 (single isomer, unassigned) [Example 150]

>  <result_value>
7.59

$$$$
>  <molecule>
COCCNc1cc(Cl)c(Cl)c2[nH]c3c(c12)[C@@H](C)C(=O)NCC3 (single isomer, unassigned) [Example 48]

>  <result_value>
5.19

$$$$
>  <molecule>
CC1C(=O)NCCc2c1c1c(OCCCO)cc(Cl)c(Cl)c1n2C (stereo not drawn) [Example 77]

>  <result_value>
7.85

$$$$
>  <molecule>
CC(O)CC1CNC(=O)Cc2c1n(C)c1c(Cl)c(Cl)cc(CC#N)c21 (mixture of isomers) [Example 128]

>  <result_value>
7.87

$$$$
>  <molecule>
CC1C(=O)NCCc2c1c1c(NC(=O)CO)cc(Cl)c(Cl)c1n2C(F)F (stereo not drawn) [Example 144]

>  <result_value>
7.65

$$$$

# input for lookup
## Task What measured pIC50 goes with COCCOc1cc(Cl)c(Cl)c2[nH]c3c(c12)C(C)C(=O)NCC3 (stereo not drawn) [Example 79] ?
## Result 7.85
